The origin of these recorded values is the Human Domainome abundance scans (Beltran et al. 2025).

B1: KAT8 regulatory NSL complex subunit 2, residues 28 to 91; numbered along this chain, Q9H9L4 (parent)
chain: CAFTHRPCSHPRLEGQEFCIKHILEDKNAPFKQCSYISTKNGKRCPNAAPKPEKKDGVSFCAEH

# Variants of: B1
# assay-notes: abundance fitness (aPCA) (normalised: wild type 0, dead -1); higher = more abundant; growth selection in yeast, the domain comes from the species named
# settings: Homo sapiens
Please provide measured abundance fitness for the entries that follow.
Would you mind answering with just the numeric figure?

Supply recorded abundance fitness for S9F here.
0.008

Supply recorded abundance fitness for A48S here.
-0.168

Supply recorded abundance fitness for R12P here.
-0.147

Supply recorded abundance fitness for S38M here.
-0.159

Supply recorded abundance fitness for P30K here.
-0.156

Supply recorded abundance fitness for P7V here.
-0.1

Supply recorded abundance fitness for V58M here.
-0.018
